Molecular target: Ba/F3-KDR-transfected cells (Homo sapiens, UniProt P35968)
Construct: BAF3-KDR (MIN IL3) pIC50; other: minus IL3
Sequence (P35968 whole entry, change not shown): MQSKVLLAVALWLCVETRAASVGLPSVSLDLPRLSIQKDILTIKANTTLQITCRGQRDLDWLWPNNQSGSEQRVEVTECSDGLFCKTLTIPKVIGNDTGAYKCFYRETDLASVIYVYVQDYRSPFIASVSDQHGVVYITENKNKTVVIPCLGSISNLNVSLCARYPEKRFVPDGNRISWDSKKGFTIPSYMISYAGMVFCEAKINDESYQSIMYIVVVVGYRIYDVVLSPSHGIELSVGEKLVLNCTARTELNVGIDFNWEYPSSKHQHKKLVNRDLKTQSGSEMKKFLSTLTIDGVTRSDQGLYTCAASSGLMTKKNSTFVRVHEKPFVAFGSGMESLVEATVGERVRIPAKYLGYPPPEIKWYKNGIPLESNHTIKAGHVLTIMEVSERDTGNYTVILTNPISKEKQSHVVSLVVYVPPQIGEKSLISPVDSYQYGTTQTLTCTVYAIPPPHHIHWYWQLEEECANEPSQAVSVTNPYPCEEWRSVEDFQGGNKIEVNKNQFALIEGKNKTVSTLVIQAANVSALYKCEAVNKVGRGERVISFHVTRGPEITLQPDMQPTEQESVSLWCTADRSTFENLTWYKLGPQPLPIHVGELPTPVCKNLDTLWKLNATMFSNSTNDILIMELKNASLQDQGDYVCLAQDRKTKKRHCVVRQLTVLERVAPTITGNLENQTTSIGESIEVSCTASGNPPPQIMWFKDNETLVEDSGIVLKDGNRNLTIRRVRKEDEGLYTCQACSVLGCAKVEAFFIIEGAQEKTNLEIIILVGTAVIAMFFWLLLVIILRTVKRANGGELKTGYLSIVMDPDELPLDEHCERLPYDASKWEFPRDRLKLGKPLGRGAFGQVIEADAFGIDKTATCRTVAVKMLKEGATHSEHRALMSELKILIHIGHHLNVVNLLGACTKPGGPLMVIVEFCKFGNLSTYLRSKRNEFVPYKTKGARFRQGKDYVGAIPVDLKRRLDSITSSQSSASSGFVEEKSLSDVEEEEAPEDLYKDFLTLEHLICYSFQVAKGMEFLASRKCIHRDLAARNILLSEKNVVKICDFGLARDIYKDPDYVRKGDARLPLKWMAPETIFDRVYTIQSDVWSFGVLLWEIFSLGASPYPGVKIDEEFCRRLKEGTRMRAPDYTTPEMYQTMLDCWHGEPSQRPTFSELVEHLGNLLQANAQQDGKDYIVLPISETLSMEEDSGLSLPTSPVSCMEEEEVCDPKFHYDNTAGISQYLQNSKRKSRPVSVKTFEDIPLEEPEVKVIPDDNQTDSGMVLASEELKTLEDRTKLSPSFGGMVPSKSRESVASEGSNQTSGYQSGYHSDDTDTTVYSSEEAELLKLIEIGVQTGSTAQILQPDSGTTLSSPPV
Assay: Ba/F3-KDR (minus IL3) cellular proliferation assay, Alamar Blue
Format: cell-based
Assay endpoint: BAF3-KDR (MIN IL3) pIC50

>>> print(df.to_string())
                                    compound            assay_endpoint  comparison_symbol  observed
 0  COc1cc(OC)c(F)c(N(Cc2ncc[nH]2)c2ccc3ncc(-c4cnn(CC(C)(C)O)c4)nc3n2)c1 [Compound 240]  BAF3-KDR (MIN IL3) pIC50                  =      6.89
 1  COc1cc(OC)c(F)c(N(CCN2CCCC2=O)c2ccc3ncc(-c4cnn(C)c4)nc3n2)c1 [Compound 157]  BAF3-KDR (MIN IL3) pIC50                  =      5.30
 2  COc1cc(OC)cc(N(CCO)c2ccc3ncc(-c4ccncc4)nc3n2)c1 [Compound 213]  BAF3-KDR (MIN IL3) pIC50                  =      5.01
 3  CNCCn1/c(=N/c2c(F)c(OC)cc(OC)c2F)ccc2ncc(-c3cn[nH]c3)nc21 [Compound 121]  BAF3-KDR (MIN IL3) pIC50                  =      5.25
 4  COc1cc(OC)c(F)c(/N=c2\ccc3ncc(-c4cnn(C)c4)nc3n2CCCO)c1F (single isomer, unassigned) [Compound 17]  BAF3-KDR (MIN IL3) pIC50                  =       6.8
 5  COc1cc(OC)c(F)c(N(CC2CCC(=O)N2C)c2ccc3ncc(-c4cnn(C)c4)nc3n2)c1 (stereo not drawn) [Compound 159]  BAF3-KDR (MIN IL3) pIC50                  =      5.17
 6  COc1cc(OC)c(F)c(N(Cc2c(C)noc2C)c2ccc3ncc(-c4cnn(C)c4)nc3n2)c1 [Compound 178]  BAF3-KDR (MIN IL3) pIC50                  <         5
 7  COc1cc(/N=c2\ccc3ncc(-c4cnn(C)c4)nc3n2Cc2cc(C)no2)c(F)c(OC)c1 [Compound 184]  BAF3-KDR (MIN IL3) pIC50                  =      6.71
 8  CCOCc1c[nH]c(CN(c2ccc3ncc(-c4cnn(C)c4)nc3n2)c2cc(OC)cc(OC)c2F)n1 [Compound 206]  BAF3-KDR (MIN IL3) pIC50                  =      5.84
 9  COc1cc(OC)c(F)c(N(CC2CCC(=O)N2CCO)c2ccc3ncc(-c4cnn(C)c4)nc3n2)c1 (single isomer, unassigned) [Compound 218]  BAF3-KDR (MIN IL3) pIC50                  =      5.64
10  COc1cc(OC)cc(N(CC(O)COC(C)C)c2ccc3ncc(-c4cnn(CC(O)COC(C)C)c4)nc3n2)c1 (stereo not drawn) [Compound 250]  BAF3-KDR (MIN IL3) pIC50                  =      5.16
11  COc1cc(OC)cc(N(CC2CCCOC2)c2ccc3ncc(-c4cnn(C)c4)nc3n2)c1 (stereo not drawn) [Compound 166]  BAF3-KDR (MIN IL3) pIC50                  =      5.07
12  COc1cc(OC)cc(N(Cc2nc[nH]n2)c2ccc3ncc(-c4cnn(C)c4)nc3n2)c1 [Compound 71]  BAF3-KDR (MIN IL3) pIC50                  =      6.03
13  COc1cc(OC)c(F)c(N(Cc2ncc[nH]2)c2ccc3ncc(-c4cn[nH]c4)nc3n2)c1 [Compound 190]  BAF3-KDR (MIN IL3) pIC50                  =      6.46
